Tested on: Plasmodium falciparum Sir2 (PF13_0152, Sir2A)
assay text: pfSir2 binders on small-molecule microarrays, primary screen, biochemical, small-molecule microarray, 635 nm fluorescence (AID 1098);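 further: score merges spot fluorescence intensity with its signal-to-noise ratio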
settings: small-molecule microarray binding, fluorescence 635 nm; higher = more signal
Listed here are compounds together with their documented composite z-score.
# respond with the number and nothing more

Past entries and their recorded results:
O=C1O[C@H](c2ccccc2)[C@H](c2ccccc2)N2[C@H]1[C@@H](C(=O)Nc1nc3ccccc3s1)[C@]1(C(=O)Nc3ccc(C#CCCO)cc31)[C@H]2c1ccc(O)cc1 ... 0.915
CCOC(=O)C[C@H]1[C@H](OC(=O)Cc2ccc3c(c2)OCO3)[C@@H](NC(=O)CC(C)C)c2cc(OCCCO)ccc2N1C(=O)Cc1ccc(OC)cc1 ... -0.25
C[C@H]1NC(=O)[C@@]23C(=O)N[C@@H](Cc4ccccc4)C2[C@H](C)[C@@]2(C)O[C@H]2C3/C=C/C/C=C\CNC(=O)[C@H](Cc2ccccc2)NC1=O (stereo not given in full) ... 1.29
CCOC(=O)C[C@H]1[C@H](OC(=O)Cc2ccc3c(c2)OCO3)[C@@H](NC(=O)Cc2ccc(OC)cc2)c2cc(OCCCO)ccc2N1C(=O)c1ccc2ccccc2n1 ... 0.0382

// lookup composite z-score for C=CCC(OC(C)=O)[C@@H]1[C@@H](N(Cc2cccc3ccccc23)C(=O)Cc2ccc(OC)cc2)c2cc(OCCCO)ccc2N1C(=O)c1ccc2ccccc2n1 (stereo not given in full)
-0.316

====

Listed here are molecules together with their documented z-score.
assay text: E. coli acrAB mutant growth effects, primary screen, E. coli filamentation inducers, strain DRC39, OD650, 24 h (AID 1178);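 further: growth measured as culture turbidity by optical density at 650 nm; test concentration not given here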
settings: higher = more signal, called active from +8 up or from −8 down
# respond with the number and nothing more

CO[C@H]1O[C@H](CO)[C@@H](OC(=O)Nc2ccccc2-c2ccccc2)[C@H](OC(=O)Nc2ccc3c(c2)OCO3)[C@H]1OC(=O)Nc1ccc2c(c1)OCO2 ... 1.2
COC(=O)c1nc2oc1CC[C@@H](CO)NC(=O)N(C)Cc1cnnn1C[C@H](Cc1ccccc1)NC2=O ... 0.218
COc1cc2c(cc1OC)CN(C(=O)[C@@H]1[C@H]3C(=O)O[C@H](c4ccccc4)[C@H](c4ccccc4)N3[C@H](c3ccc(OCCO)cc3)[C@@]13C(=O)Nc1ccccc13)CC2 ... 0.144
NCCCCCCNC(=O)[C@@H]1C[C@@H]2C(=O)N[C@@H](CCCCN)C(=O)N2[C@@H]1c1cccc(OCCO)c1 ... 0.398

Now look at this one.
// lookup z-score for `C=C(C)c1cc2c(c(CCCCCC)n1)[Si](C(C)C)(C(C)C)OC2`
0.251

====

Listed here are compounds together with their documented z-score.
assay text: E. coli acrAB mutant growth effects, primary screen, E. coli filamentation inducers, strain DRC39, OD650, 48 h (AID 1179);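 further: screen aims at cell division blockers that make cells filament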
settings: E. coli DRC39 delta-acrAB growth, higher = more signal, called active from +8 up or from −8 down
# respond with the number and nothing more

Past entries and their recorded results:
CC(CO)N1C(=O)[C@@H]2[C@H]3C(=O)OCC=C[C@H]3OC23C=CCN(C(C)(C)C)C(=O)[C@@H]13 (stereo partly specified) ... -0.762
O=C1NC(=O)C2C1C=CC(C(O)c1c(F)cccc1Cl)N2Nc1ccc(Cl)cc1Cl (stereo unspecified) ... -1.44
COCC1=C2[C@@H](CCc3ccccc3)OB(O)C[C@@H]2[C@@H]2C(=O)C=CC(=O)[C@@H]2C1 ... 0.0271
O=C1O[C@@H](c2ccccc2)[C@@H](c2ccccc2)N2[C@@H](c3ccc(OCCO)cc3)[C@]3(C(=O)Nc4ccccc43)[C@@H](C(=O)O)[C@H]12 ... -0.513

// lookup z-score for `COC(=O)c1c2oc(c1C(=O)OC)C(=O)N(Cc1ccccc1)Cc1cn(nn1)C[C@H](Cc1ccccc1)NC(=O)N[C@H](CO)CC2`
1.89

// lookup z-score for `COc1ccc(CN(C2=CC[C@@]3(C(N)=O)C(=O)C(Cl)=C(Cl)C(=O)[C@@]3(C#N)C2)S(=O)(=O)c2ccc(Br)cc2)cc1`
0.575

====

Tested on: Lefty1
assay text: Lefty1 binders on small-molecule microarrays, primary screen, biochemical, small-molecule microarray, 635/667 nm fluorescence (AID 1139)
settings: small-molecule microarray binding, fluorescence 635/667; higher = more signal
property label: composite z-score
# respond with the number and nothing more

Past entries and their recorded results:
COC(=O)C(CC#Cc1ccc2c(c1)[C@]1(C(=O)N2)[C@H](c2ccccc2OCCO)N2[C@H](c3ccccc3)[C@H](c3ccccc3)OC(=O)[C@H]2[C@@H]1C(=O)NC[C@H](O)c1ccccc1)C(=O)OC ... 0.697
CC(C)OC(=O)C=C1C[C@@H](c2ccc(C(F)(F)F)cc2)O[C@@H](c2ccc(C(F)(F)F)cc2)O1 ... -0.0747
Cn1cccc1C(O)C1C=CC2C(=O)NC(=O)C2N1Nc1ccc(Cl)cc1Cl (stereo not given) ... -0.207
COC(=O)[C@@]1(Cc2ccc(F)cc2)[C@H]2c3cc(C(=O)N4CCCC4)n(CCN4CNCC4=O)c3C[C@H]2CN1C(=O)c1ccccc1 ... -0.0252
COCCOC(=O)N1C(=O)[C@@]2(c3cc(C#CCCO)ccc31)[C@H](c1ccccc1OCCO)N1[C@H](c3ccccc3)[C@H](c3ccccc3)OC(=O)[C@H]1[C@@H]2C(=O)Nc1nc2ccccc2s1 ... 0.932
CCOc1cc(C(O)C2C=CC3C(=O)N(c4ccccc4)C(=O)C3N2Nc2ccc(C#N)cc2)ccc1O (stereo not given) ... 0.113
Cc1ccc(S[C@]2(C(=O)O)CC(=O)N(Cc3cc(C(F)(F)F)cc(C(F)(F)F)c3)[C@@H]2c2ccc(CO)cc2)cc1 ... -1.66
CC(C)(C)N1CC=CC23O[C@@H]4C=CCOC(=O)[C@@H]4[C@H]2C(=O)N(CCCCCCO)[C@@H]3C1=O (stereo not given in full) ... -0.447

// lookup composite z-score for C=CCC(OC(C)=O)[C@@H]1[C@@H](N(Cc2ccc(-c3ccccc3)cc2)C(=O)Cc2ccc(F)cc2)c2cc(OCCCO)ccc2N1C(=O)Cc1ccc(OC)cc1 (stereo not given in full)
-0.0463

// lookup composite z-score for `CCOC(=O)C[C@H]1[C@H](OC(=O)Cc2ccc3c(c2)OCO3)[C@@H](NC(=O)Cc2ccc(OC)cc2)c2cc(OCCCO)ccc2N1C(=O)c1ccc2ccccc2n1`
0.168

// lookup composite z-score for `C[N+](C)(C)CCCC[C@@H]1NC(=O)[C@H]2C[C@@H](C(=O)NCCCCCCN)[C@@H](c3ccc(O)cc3)N2C1=O`
-0.046

// lookup composite z-score for `C=C(COC)/C(=C/C[C@H](OC(C)=O)c1ccc(OCCO)cc1)c1cc(C(=O)OC)ccc1OC`
1.66

// lookup composite z-score for [N-]=[N+]=NCc1ccccc1[C@H]1OC(c2ccc(OCCCO)cc2)=N[C@@]1(CCS(=O)(=O)c1ccccc1)C(=O)NCC(O)CO (stereo not given in full)
-0.385

====

Listed here are compounds together with their documented composite z-score.
Tested on: Chordin-like protein 2 (CHRDL2)
assay text: CHRDL2 small-molecule binders, primary screen, biochemical, small-molecule microarray, 635 nm fluorescence (AID 1126);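 further: printed compound slides probed with Chrdl2 protein at 4 µg/mL for 1 h at 4 C; score merges 667 nm emission intensity with signal to noise over three replicate slides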
settings: small-molecule microarray binding, fluorescence 635 nm; higher = more signal
# respond with the number and nothing more

Past entries and their recorded results:
Cc1ccc(S[C@]2(C(=O)NCC(F)(F)F)CC(=O)N(Cc3ccccc3)[C@@H]2c2ccc(CO)cc2I)cc1 ... -0.151
CC(C)OC(=O)C=C1C[C@@H](c2ccc(C(F)(F)F)cc2)O[C@@H](c2ccc(C(F)(F)F)cc2)O1 ... -0.782
CCOC(=O)C[C@H]1[C@H](OC(=O)c2ccccc2-c2ccccc2)[C@@H](NC(=O)c2ccc(-c3ccccc3)cc2)c2cc(OCCCO)ccc2N1C(=O)c1ccc2ccccc2n1 ... 0.304

Now look at this one.
// lookup composite z-score for `CC(C)(C)OC(=O)CC[C@]1(C(=O)NCc2ccccc2)N=C(c2ccc(OCCCO)cc2)O[C@H]1c1ccccc1CN=[N+]=[N-]`
-0.0873

====

assay text: basal 3T3-L1 adipocyte mitochondrial potential changes, profiling panel, cell-based, JC-1 fluorescence, 3T3-L1 adipocytes, 24 h, 100 nL compound (AID 1168); further: test concentration not given here
settings: JC-1 mitochondrial fluorescence, higher = more signal, called active from +8 up or from −8 down
Threshold check on z-score: at or above -0.02 gives satisfied, strictly below gives not satisfied.

The following compounds have reported results that may help.
CC(C)C[C@@H]1NC(=O)[C@@H]2C[C@H](C(=O)NCCCCN(C)C)[C@H](c3cccc(OCCO)c3)N2C1=O ... satisfied
C=C(C(=O)CC[C@@H](OC(C)=O)c1ccc(CO)o1)C(C)C ... satisfied
CC(C)OC(=O)C=C1C[C@@H](c2ccc(C(F)(F)F)cc2)O[C@@H](c2ccc(C(F)(F)F)cc2)O1 ... satisfied

Assess whether reported z-score for CCOc1cc(C(O)C2C=CC3C(=O)N(c4ccccc4)C(=O)C3N2Nc2ccc(C#N)cc2)ccc1O (stereo not given) sits at -0.02 or higher.
not satisfied

Assess whether reported z-score for `CCCCC(=C=CC[C@@H](O)c1ccccc1OCCO)C[C@@H](O)COCc1ccccc1` sits at -0.02 or higher.
satisfied

Assess whether reported z-score for `CC(C)[Si](C#CCCCC#N)(O[C@H](c1ccccc1)c1cn([C@H](CO)Cc2ccccc2)nn1)C(C)C` sits at -0.02 or higher.
not satisfied

Assess whether reported z-score for CN(C)c1ccc(C(O)C2C=CC3C(=O)N(c4ccccc4)C(=O)C3N2Nc2ccc([N+](=O)[O-])cc2)cc1 (stereo not given) sits at -0.02 or higher.
not satisfied

Assess whether reported z-score for `COC(=O)c1c(CC[C@@H](CO)NC(=O)N2CCC[C@H]2Cn2cc(Cc3ccccc3)nn2)oc(C(C)=O)c1C(=O)OC` sits at -0.02 or higher.
satisfied

Assess whether reported z-score for CN1C(=O)C2C=CC(C(O)c3cccc4ccccc34)N(N3CCCCC3)C2C1=O (stereo not given) sits at -0.02 or higher.
not satisfied

Assess whether reported z-score for CCOC(=O)C1CCCCN1 (stereo not given) sits at -0.02 or higher.
satisfied
